All figures here come from paper PMC11472058.

I'd appreciate it if you could supply pKd values for the items below.
Just so you know, pKd here is -log10 of the concentration in molar units; reply with that number alone.

Asked: Value wanted: pKd (human eIF4E1a (Homo sapiens, UniProt P06730)) of entry C[n+]1cn([C@@H]2O[C@H](COP(=O)(O)O[P@](=O)([S-])OP(=O)(O)OC[C@H]3O[C@@H](n4cnc5c(N)ncnc54)[C@H](O)[C@@H]3OP(=O)(O)OC[C@H]3O[C@@H](n4cnc5c(=O)[nH]c(N)nc54)[C@H](O)[C@@H]3O)[C@@H](O)[C@H]2O)c2nc(N)nc(O)c21
Given back: 7.80

Asked: What value of pKd on human eIF4E1a (Homo sapiens, UniProt P06730) does COC1C(OP(=O)(O)OCC2OC(n3cnc4c(=O)[nH]c(N)nc43)C(O)C2O)C(COP(=O)(O)OP(=O)([S-])OP(=O)(O)OCC2OC(n3c[n+](C)c4c(O)nc(N)nc43)C(O)C2O)OC1n1cnc2c(N)ncnc21 (centres unmarked) [Compound 4, m^7GppSpAmpG] have?
Given back: 7.78

Asked: # returns recorded pKd (system: human eIF4E1a (Homo sapiens, UniProt P06730)) for COC1C(OP(=O)(O)OCC2OC(n3cnc4c(=O)[nH]c(N)nc43)C(O)C2O)C(COP(=O)(O)OP(=O)([S-])OP(=O)(O)OCC2OC(n3c[n+](C)c4c(O)nc(N)nc43)C(O)C2O)OC1n1cnc2c(N)ncnc21 (centres unmarked) [Compound 3, m^7GppSpAmpG]
Sequence (P06730 whole entry): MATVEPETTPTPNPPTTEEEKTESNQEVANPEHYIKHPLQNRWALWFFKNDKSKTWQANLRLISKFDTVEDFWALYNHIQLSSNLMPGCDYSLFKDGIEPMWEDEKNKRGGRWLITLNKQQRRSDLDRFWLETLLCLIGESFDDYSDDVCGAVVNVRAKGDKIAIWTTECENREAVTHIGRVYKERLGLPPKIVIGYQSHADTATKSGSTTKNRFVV
Given back: 7.85

Asked: Form: Entry = CO[C@@H]1[C@H](OP(=O)(O)OC[C@H]2O[C@@H](n3cnc4c(=O)[nH]c(N)nc43)[C@H](O)[C@@H]2O)[C@@H](COP(=O)([O-])OP(=O)(O)CP(=O)(O)OP(=O)(O)OC[C@H]2O[C@@H](n3c[n+](C)c4c(O)nc(N)nc43)[C@H](O)[C@@H]2O)O[C@H]1n1cnc2c(N)ncnc21 | System = human eIF4E1a (Homo sapiens, UniProt P06730) | pKd = ____
Given back: 7.92

Asked: API: value(readout= pKd, system= human eIF4E1a (Homo sapiens, UniProt P06730), query= CO[C@@H]1[C@H](OP(=O)(O)OC[C@H]2O[C@@H](n3cnc4c(=O)[nH]c(N)nc43)[C@H](O)[C@@H]2O)[C@@H](CSP(=O)([O-])OP(=O)(O)OP(=O)(O)OC[C@H]2O[C@@H](n3c[n+](C)c4c(O)nc(N)nc43)[C@H](O)[C@@H]2O)O[C@H]1n1cnc2c(N)ncnc21 )
Given back: 7.31

Asked: What value of pKd on human eIF4E1a (Homo sapiens, UniProt P06730) does C[n+]1cn([C@@H]2O[C@H](COP(=O)(O)OP(=O)(O)OP(=O)([O-])SC[C@H]3O[C@@H](n4cnc5c(N)ncnc54)[C@H](O)[C@@H]3OP(=O)(O)OC[C@H]3O[C@@H](n4cnc5c(=O)[nH]c(N)nc54)[C@H](O)[C@@H]3O)[C@@H](O)[C@H]2O)c2nc(N)nc(O)c21 have?
Given back: 7.50

Asked: Write down the reported pKd of CNc1ncnc2c1ncn2[C@@H]1O[C@H](COP(=O)(O)O[P@@](=O)([S-])OP(=O)(O)OC[C@H]2O[C@@H](n3c[n+](C)c4c(O)nc(N)nc43)[C@H](O)[C@@H]2O)[C@@H](OP(=O)(O)OC[C@H]2O[C@@H](n3cnc4c(=O)[nH]c(N)nc43)[C@H](O)[C@@H]2O)[C@H]1OC , test system: human eIF4E1a (Homo sapiens, UniProt P06730).
Given back: 7.66

Asked: Recorded pKd for C[n+]1cn([C@@H]2O[C@H](COP(=O)(O)O[P@@](=O)([S-])OP(=O)(O)OC[C@H]3O[C@@H](n4cnc5c(N)ncnc54)[C@H](O)[C@@H]3OP(=O)(O)OC[C@H]3O[C@@H](n4cnc5c(=O)[nH]c(N)nc54)[C@H](O)[C@@H]3O)[C@@H](O)[C@H]2O)c2nc(N)nc(O)c21 with human eIF4E1a (Homo sapiens, UniProt P06730), please?
Given back: 7.90
